The origin of these recorded values is patent US9149038B2.

# Test system: Key Broadleaf Weed and Crop Species
# protocolDetails: Post-Emergent Test II: postemergent herbicidal activity, visual rating after 14 d (Table 7)
# Assay type: in vivo
# conditionSet: post-emergence, 336 h, wild poinsettia (Euphorbia heterophylla), 35 g ai/ha, read-out: Visual Growth Reduction (%) 14 Days After Application EPHHL
quantityMeasured: pest or weed control at 35 g/ha

> print(dat)
                                   molecule  reportedvalue
1  C=Cc1c(C(=O)OC)nc(-c2cc3c(cc2F)OC(F)(F)O3)c(F)c1N [Compound 27]       0 to 29%
2  COc1c(N)nc(-c2cc3c(cc2F)OC(F)(F)O3)nc1C(=O)O [Compound 68]      75 to 84%
3  COC(=O)c1nc(-c2c(F)cc3c(c2F)OCO3)cc(N)c1Cl [Compound 48]     95 to 100%

----------
# Test system: Wheat and Barley and weed species
# protocolDetails: Post-Emergent Test III: postemergent herbicidal activity in wheat and barley, visual rating after 21 d and probit GR20/GR50/GR80/GR90 (Tables 9-13)
# Format: in vivo
# conditionSet: LOLSS ryegrass; growth reduction of 50%; probit analysis
In this section we review reported GR50 LOLSS values for a set of molecules.
quantityMeasured: GR50 LOLSS

> print(dat)
                    compoundstructurestring  reportedvalue
1  Nc1c(F)c(-c2ccc3c(c2)OC(F)(F)O3)nc(C(=O)O)c1Cl   >140 g ai/ha
2  COC(=O)c1nc(-c2ccc3c(c2)OC(C)(C)O3)c(F)c(N)c1Cl    >70 g ai/ha
3  Nc1c(F)c(-c2cc3c(cc2F)OC(F)(F)O3)nc(C(=O)O)c1Cl    >70 g ai/ha

----------
# Test system: Wheat and Barley and weed species
# protocolDetails: Post-Emergent Test III: postemergent herbicidal activity in wheat and barley, visual rating after 21 d and probit GR20/GR50/GR80/GR90 (Tables 9-13)
# Assay type: in vivo
# conditionSet: post-emergence, 504 h; SETVI green foxtail (Setaria viridis); 70 g ai/ha; read-out: Visual Growth Reduction (%) 21 Days After Application SETVI
quantityMeasured: pest or weed control at 70 g/ha

> print(dat)
                                   molecule  reportedvalue
1  COC(=O)c1nc(-c2ccc3c(c2F)OC(F)(F)O3)c(F)c(N)c1Cl [Compound 10]      75 to 84%
2  COC(=O)c1nc(-c2cc3c(cc2F)OC(F)(F)O3)c(F)c(N)c1Cl [Compound 9]      85 to 94%
3  Nc1c(F)c(-c2ccc3c(c2)OC(F)(F)O3)nc(C(=O)O)c1Cl [Compound 7]      85 to 94%
4  Nc1cc(-c2cc3c(cc2F)OC(F)(F)O3)nc(C(=O)O)c1Cl [Compound 42]      85 to 94%
5  COC(=O)c1nc(-c2c(F)cc3c(c2F)OC(F)(F)O3)cc(N)c1Cl [Compound 46]      30 to 44%

----------
# Test system: Key Grass and Sedge Weeds as well as Grass Crops
# protocolDetails: Post-Emergent Test II: postemergent herbicidal activity, visual rating after 14 d (Table 8)
# Type: in vivo
# conditionSet: post-emergence, 336 h, yellow nutsedge (Cyperus esculentus), 70 g ai/ha, read-out: Visual Growth Reduction (%) 14 Days After Application CYPES
In this section we review reported pest or weed control at 70 g/ha values for a set of compounds.
quantityMeasured: pest or weed control at 70 g/ha

> print(dat)
                     compoundstructurestring  reportedvalue
 1  Nc1c(F)c(-c2cc(F)c3c(c2)OC(F)(F)O3)nc(C(=O)O)c1Cl       0 to 29%
 2  COC(=O)c1nc(-c2c(F)cc3c(c2F)OC(F)(F)O3)cc(N)c1Cl     95 to 100%
 3  COc1c(N)nc(-c2ccc3c(c2)OC(F)(F)O3)nc1C(=O)O     95 to 100%
 4  COC(=O)c1nc(-c2ccc3c(c2F)OC(F)(F)O3)nc(N)c1Cl      60 to 74%
 5  Nc1nc(-c2ccc3c(c2F)OC(F)(F)O3)nc(C(=O)O)c1Cl       0 to 29%
 6  C=Cc1c(C(=O)OC)nc(-c2cc3c(cc2F)OC(F)(F)O3)c(F)c1N       0 to 29%
 7  COC(=O)c1nc(-c2cc3c(cc2F)OC(F)(F)O3)c(F)c(N)c1Cl     95 to 100%
 8  COC(=O)c1nc(-c2cc3c(cc2F)OC(F)(F)O3)c(F)c(N)c1OC     95 to 100%
 9    Nc1c(F)c(-c2cccc3c2OCO3)nc(C(=O)O)c1Cl       0 to 29%
10  COC(=O)c1nc(-c2cc3c(cc2F)OC(F)(F)O3)cc(N)c1Cl     95 to 100%
11  COC(=O)c1nc(-c2cc3c(cc2F)OCO3)c(F)c(N)c1OC       0 to 29%
12  COC(=O)c1nc(-c2ccc3c(c2)OC(F)(F)O3)nc(N)c1Cl      85 to 94%
13  COC(=O)c1nc(-c2cccc3c2OC(F)(F)O3)c(F)c(N)c1Cl      45 to 59%
14  C=Cc1c(C(=O)O)nc(-c2cc3c(cc2F)OC(F)(F)O3)c(F)c1N     95 to 100%
15  C=Cc1c(C(=O)OC)nc(-c2cc3c(cc2F)OCO3)c(F)c1N       0 to 29%
16  Nc1c(F)c(-c2ccc(I)c3c2OC(F)(F)O3)nc(C(=O)O)c1Cl       0 to 29%
17  COC(=O)c1nc(-c2ccc3c(c2F)OC(F)(F)O3)c(F)c(N)c1Cl     95 to 100%
18  Nc1cc(-c2cc3c(cc2F)OC(F)(F)O3)nc(C(=O)O)c1Cl     95 to 100%
19  COC(=O)c1nc(-c2ccc(I)c3c2OC(F)(F)O3)c(F)c(N)c1Cl       0 to 29%
20  COC(=O)c1nc(-c2ccc3c(c2)OC(C)(C)O3)nc(N)c1Cl       0 to 29%
21  Nc1nc(-c2ccc3c(c2)OC(F)(F)O3)nc(C(=O)O)c1Cl       0 to 29%
22   COC(=O)c1nc(-c2cccc3c2OCO3)c(F)c(N)c1Cl       0 to 29%
23  COC(=O)c1nc(-c2ccc3c(c2)OC(F)(F)O3)c(C)c(N)c1Cl       0 to 29%
24  COC(=O)c1nc(-c2ccc(F)c3c2OC(F)(F)O3)c(F)c(N)c1Cl      30 to 44%
25  Nc1c(F)c(-c2cc3c(cc2F)OC(F)(F)O3)nc(C(=O)O)c1Cl      75 to 84%
26  Nc1c(F)c(-c2ccc3c(c2F)OC(F)(F)O3)nc(C(=O)O)c1Cl     95 to 100%
27  COc1c(C(=O)O)nc(-c2ccc3c(c2)OC(F)(F)O3)c(F)c1N     95 to 100%
28  COC(=O)c1nc(-c2ccc3c(c2)OC(F)(F)O3)c(Cl)c(N)c1Cl       0 to 29%
29  COC(=O)c1nc(-c2ccc3c(c2F)OC(F)(F)O3)c(Cl)c(N)c1Cl       0 to 29%
30  COC(=O)c1nc(-c2cc3c(cc2OC)OC(F)(F)O3)cc(N)c1Cl       0 to 29%
31  Nc1c(F)c(-c2ccc3c(c2)OC(F)(F)O3)nc(C(=O)O)c1Cl     95 to 100%
32  COC(=O)c1nc(-c2cc3c(cc2F)OCO3)c(F)c(N)c1Cl      45 to 59%

----------
# Tested on: Key Grass and Sedge Weeds as well as Grass Crops
# protocolDetails: Post-Emergent Test II: postemergent herbicidal activity, visual rating after 14 d (Table 8)
# Assay type: in vivo
# conditionSet: post-emergence, 336 h, giant foxtail (Setaria faberi), 140 g ai/ha, read-out: Visual Growth Reduction (%) 14 Days After Application SETFA
quantityMeasured: pest or weed control at 140 g/ha

> print(dat)
                                    compound                                  testedon  reportedvalue
 1  COc1c(N)nc(-c2ccc3c(c2)OC(F)(F)O3)nc1C(=O)O [Compound 63]  Key Grass and Sedge Weeds as well as Grass Crops     95 to 100%
 2  Nc1nc(-c2ccc3c(c2)OC(F)(F)O3)nc(C(=O)O)c1Cl [Compound 61]  Key Grass and Sedge Weeds as well as Grass Crops      85 to 94%
 3  COC(=O)c1nc(-c2cc3c(cc2F)OCO3)nc(N)c1OC [Compound 69]  Key Grass and Sedge Weeds as well as Grass Crops       0 to 29%
 4  Cc1c(-c2ccc3c(c2)OC(F)(F)O3)nc(C(=O)O)c(Cl)c1N [Compound 52]  Key Grass and Sedge Weeds as well as Grass Crops      45 to 59%
 5  Nc1c(F)c(-c2ccc(F)c3c2OC(F)(F)O3)nc(C(=O)O)c1Cl [Compound 77]  Key Grass and Sedge Weeds as well as Grass Crops       0 to 29%
 6  COC(=O)c1nc(-c2ccc(Cl)c3c2OC(F)(F)O3)c(F)c(N)c1Cl [Compound 75]  Key Grass and Sedge Weeds as well as Grass Crops       0 to 29%
 7  COC(=O)c1nc(-c2ccc3c(c2)OC(F)(F)O3)c(F)c(N)c1Cl [Compound 6]  Key Grass and Sedge Weeds as well as Grass Crops      85 to 94%
 8  COC(=O)c1nc(-c2cccc3c2OC(F)(F)O3)c(F)c(N)c1Cl [Compound 73]  Key Grass and Sedge Weeds as well as Grass Crops       0 to 29%
 9  Nc1cc(-c2cc(F)c3c(c2)OC(F)(F)O3)nc(C(=O)O)c1Cl [Compound 44]  Key Grass and Sedge Weeds as well as Grass Crops       0 to 29%
10  COC(=O)c1nc(-c2c(F)cc3c(c2F)OC(F)(F)O3)cc(N)c1Cl [Compound 46]  Key Grass and Sedge Weeds as well as Grass Crops       0 to 29%
11  Nc1cc(-c2ccc3c(c2F)OC(F)(F)O3)nc(C(=O)O)c1Cl [Compound 41]  Key Grass and Sedge Weeds as well as Grass Crops      85 to 94%
12  COc1c(N)nc(-c2ccc3c(c2F)OC(F)(F)O3)nc1C(=O)O [Compound 66]  Key Grass and Sedge Weeds as well as Grass Crops      85 to 94%
13  COC(=O)c1nc(-c2ccc(Cl)c3c2OC(F)(F)O3)c(Cl)c(N)c1Cl [Compound 70]  Key Grass and Sedge Weeds as well as Grass Crops       0 to 29%
14  COC(=O)c1nc(-c2ccc3c(c2)OC(F)(F)O3)nc(N)c1OC [Compound 62]  Key Grass and Sedge Weeds as well as Grass Crops      60 to 74%
15  Nc1c(Cl)c(C(=O)O)nc(-c2cc3c(cc2F)OC(F)(F)O3)c1Cl [Compound 3]  Key Grass and Sedge Weeds as well as Grass Crops       0 to 29%
16  COC(=O)c1nc(-c2ccc(F)c3c2OC(F)(F)O3)c(F)c(N)c1Cl [Compound 76]  Key Grass and Sedge Weeds as well as Grass Crops       0 to 29%
17  COc1cc(-c2nc(C(=O)O)c(Cl)c(N)c2F)cc2c1OCO2 [Compound 15]  Key Grass and Sedge Weeds as well as Grass Crops       0 to 29%
18  COC(=O)c1nc(-c2ccc3c(c2F)OC(F)(F)O3)c(Cl)c(N)c1Cl [Compound 4]  Key Grass and Sedge Weeds as well as Grass Crops       0 to 29%
19  COC(=O)c1nc(-c2ccc3c(c2OC)OC(F)(F)O3)cc(N)c1Cl [Compound 47]  Key Grass and Sedge Weeds as well as Grass Crops       0 to 29%
20  C=Cc1c(C(=O)OC)nc(-c2cc3c(cc2F)OCO3)c(F)c1N [Compound 31]  Key Grass and Sedge Weeds as well as Grass Crops       0 to 29%
21  COC(=O)c1nc(-c2cc3c(cc2F)OC(F)(F)O3)c(F)c(N)c1Cl [Compound 9]  Key Grass and Sedge Weeds as well as Grass Crops      75 to 84%
22  COC(=O)c1nc(-c2ccc3c(c2F)OC(F)(F)O3)cc(N)c1Cl [Compound 37]  Key Grass and Sedge Weeds as well as Grass Crops     95 to 100%
23  COC(=O)c1nc(-c2cc(OC)c3c(c2)OCO3)c(F)c(N)c1Cl [Compound 14]  Key Grass and Sedge Weeds as well as Grass Crops       0 to 29%
24  Nc1c(F)c(-c2cccc3c2OCO3)nc(C(=O)O)c1Cl [Compound 72]  Key Grass and Sedge Weeds as well as Grass Crops       0 to 29%
25  COC(=O)c1nc(-c2ccc(I)c3c2OC(F)(F)O3)c(F)c(N)c1Cl [Compound 79]  Key Grass and Sedge Weeds as well as Grass Crops       0 to 29%
26  COC(=O)c1nc(-c2cc3c(cc2F)OC(F)(F)O3)nc(N)c1OC [Compound 64]  Key Grass and Sedge Weeds as well as Grass Crops      75 to 84%
